Cited source: a melting point compilation (Tetko et al.; mined from patent text by program, amines drawn as free bases though some values may be those of a salt)

In this section, each of the molecules is paired with its reported melting point.

// worked examples, melting point included
| molecule | melting point |
| --- | --- |
| O=C1c2ccccc2C(=O)N1C[C@H]1CN2C(=O)C[C@@H]2O1 (racemic) | 137 to 138 °C |
| Cc1ccc(-c2ncncc2Br)cc1 | 81 to 82 °C |
| Fc1ccc(-c2nc3ccc(N4CCC(N5CCCC5)CC4)nn3c2-c2ccnc3[nH]ccc23)cc1 | 261 to 264 °C |

Task: // lookup melting point for COC(=O)C1(O)CCCC(=O)C1N=Nc1ccccc1 (stereo not drawn)
Result: 144 °C

Task: If you can, please state the reported melting point value of O=C(Cn1cccn1)c1ccc(F)cc1F .
Result: 76.4 °C

Task: Consider the molecule Cc1ccc2c(n1)Oc1ccc(C(C)C(=O)OCC(=O)N(C)C)cc1C2 (stereo not drawn) and give its measured melting point.
Result: 150 to 151 °C

Task: Recorded melting point for COc1ccc(N(C)c2ncnc3occ(C)c23)cc1 , please?
Result: 84 to 85.6 °C

Task: For the molecule CN(C)C(=O)Cc1c(C(=O)c2ccccc2)[nH]c2cc(Cl)ccc12 , what melting point is on record?
Result: 190 to 193 °C

Task: GET /values?readout=melting point&item= CN1C(=O)CC[C@]2(C)c3ccc(-c4cccc5ncccc45)cc3CC[C@@H]12
Result: 100 to 104 °C

Task: Which measured melting point value corresponds to CS(=O)(=O)c1ccc(-c2cnn(-c3cc(F)cc(F)c3)c(=O)c2-c2ccc(F)cc2)cc1 ?
Result: 166 to 168 °C

Task: For N#Cc1cnn2c1N(C(=O)CN1CCN(CC#CCN3CCCC3=O)CC1)CC=C2c1cccc(C(F)(F)F)c1 , what is its reported melting point?
Result: 124 to 126 °C

Task: Reported melting point, molecule O=C(O)Cc1ccc(OCCNC(=O)C2Cc3ccccc3N2S(=O)(=O)c2ccc(-c3ccc(F)cc3)cc2)cc1 (stereo not drawn) : ____
Result: 81 °C

Task: Reported melting point, molecule O=C1N(Cc2ccc(-c3noc(C(F)(F)F)n3)cc2)c2ccccc2C12COc1cc3c(cc12)CCO3 (stereo not drawn) : ____
Result: 178 to 179 °C

Task: For the molecule Cc1ccc(CS(=O)c2nc3cc4c(cc3[nH]2)OC(F)(F)O4)nc1 (stereo not drawn) , what melting point is on record?
Result: 206 to 208 °C

Task: Given the entry Sc1nccn1Cc1ccc(Cl)cc1 , report its measured melting point.
Result: 187 to 189 °C

Task: Give the measured melting point of CS(=O)(=O)c1ccc(OCCCCl)cc1 .
Result: 84 to 86 °C

Task: Data request, read-out melting point, for O=C1Nc2cccnc2N(C(=O)CCN2CCNCC2)c2ccccc21
Result: 280 to 282 °C

Task: Look up melting point for this molecule: O=C(O)CC(CC(=O)O)c1cc(C(=O)O)n(CC(=O)O)c1
Result: 130 °C

---

parameter: melting point

| compound | melting point |
| --- | --- |
| O=C(Cc1c(-c2ccccc2)c2cc(O)c(Cl)cc2oc1=O)Nc1ccc(Cl)cc1C(F)(F)F | 246 to 247 °C |
| COC(=O)c1cc(OC)c(OS(=O)(=O)C(F)(F)F)cc1N | 85 to 87 °C |
| CCON=C(c1ccccc1SCc1ccc(Cl)cc1)n1ccnc1 | 96.5 to 97.5 °C |
| CNc1ccc(CCc2cc(OC)ccc2OC)cc1C(=O)OC | 73 °C |
| COc1cc(OCC(CO)CO)c(-c2cccs2)cc1C=CC(=O)c1ccc(S(N)(=O)=O)cc1 | 191 to 192 °C |

Task: Fill in the blank: the reported melting point of COc1cc(C(C)C)ccc1C1(NC(C)=O)C(=O)c2ccccc2C1=O is ____.
Result: 222 to 224 °C

Task: Suppose we examine the compound Cc1oc(-c2ccccc2)nc1COc1ccc(CN(O)C(N)=O)cc1Cl ; what melting point value has been reported?
Result: 180 to 182 °C

Task: Which melting point is listed for C[C@@H]1N=C(c2ccccc2)c2cc(C#CCCCC(=O)NO)ccc2N(C)C1=O ?
Result: 101 to 103 °C

Task: Data request, read-out melting point, for CC(C)CCc1c(-c2ccc(S(C)(=O)=O)cc2)cnn(-c2ccc(F)c(F)c2)c1=O
Result: 55 to 58 °C

Task: melting point lookup needed for OCc1cncc(-c2ccccc2)c1 , thanks.
Result: 71 to 72 °C

Task: Fill in: melting point of O=C(O)c1ccc(/C=C/c2ccc(O)c(C34CC5CC(CC(C5)C3)C4)c2)cc1 is ___
Result: 279 to 280 °C

Task: What value of melting point has been reported for the following compound? O=C(Nc1ccc(N2CCCC2)nc1)c1cc2cc(F)ccc2n1Cc1ccncc1
Result: 255 to 257 °C

Task: melting point lookup needed for Cn1c(-c2ccc(OC3CCN(C4CCC4)CC3)cc2)nc2ncccc2c1=O , thanks.
Result: 146 to 150 °C

Task: Look at this compound and give its reported melting point. COc1ccc2c(c1)C(=NO)C(=O)N2c1ccc(F)cc1
Result: 217 to 219 °C

Task: Can you look up the measured melting point of CC(=O)Oc1ccc(-c2ccc(CO)cc2S(=O)CC[Si](C)(C)C)cc1C (stereo not drawn) for me?
Result: 132 to 134 °C

---

parameter: melting point

Below, each entry is followed by its recorded melting point result.
| compound | melting point |
| --- | --- |
| CC(CCC(=O)O)CC(C)CC(C)C(=O)C=C(O)C(C)CC(C)CC=CC(C)C(O)C(C)C(O)CC1CCC(C)(C2CCC(C)(C(C)O)O2)O1 (stereo not drawn) | 203 °C |
| CCOC(=O)C=Cc1ccc(Cl)cc1NS(=O)(=O)c1ccc(C)cc1 | 124 to 127 °C |
| COc1cc(Cl)cc(Cn2c(=O)cc(C(F)(F)F)n(C)c2=O)c1Cl | 117 to 123 °C |
| CC(C)(C)c1cc(C(=O)NCC(=O)Nc2ccc(N=C(N)c3cccs3)cc2)cc(C(C)(C)C)c1O | > 250 °C |
| CC(C)(C)c1cc(C(Cl)Cl)c(Cl)c(C(C)(C)C)c1O | 176 to 177 °C |

Task: Quick one: melting point for CCNC(=O)c1ccc(C2(C(N)=O)CN(C(=O)OC(C)(C)C)CCc3c2cc(CC)c(CC)c3Cl)cc1 (stereo not drawn) ?
Result: 89 to 95 °C

Task: Reported melting point for CC(=O)c1cnc2c(NC(=O)c3c(Cl)cccc3Cl)cccc2c1 : what is it?
Result: 243 to 245 °C

---

parameter: melting point

The examples below pair each entry with its known result.
| compound | melting point |
| --- | --- |
| CCn1ncc2c1ncc1c(=O)[nH]c3nc(SC)nn3c12 | > 300 °C |
| CCOC(=O)NCc1cccc2c1C(=O)N(C1CCC(=O)NC1=O)C2=O (centres undefined) | 187 to 189 °C |

Task: Which melting point value belongs to O=[N+]([O-])c1ccc(N=Nc2ccc(O)c(CO)c2)cc1 ?
Result: 178 to 179 °C

Task: Request the reported melting point associated with CCOC(=O)c1cnc2c(NC(=O)c3c(Cl)cccc3Cl)cccc2c1COC(C)=O
Result: 138 to 142 °C

Task: Entry CC(O)c1ccccc1-c1ccc(C(=O)N2Cc3ccc(C(=O)NCc4cccnc4)n3Cc3ccccc32)cc1 (single isomer, unassigned; (-)) has what melting point?
Result: 118 °C

---

Reported melting point by item:

Use the examples below as a reference point.
| compound | melting point |
| --- | --- |
| CCOP(=O)(CCN1CCC(N(C)S(=O)(=O)c2ccc(Nc3nccc(Nc4ccc(F)cc4)n3)cc2)CC1)OCC | 95 to 100 °C |
| O=[N+]([O-])C=C1SCCCN1S(=O)(=O)CCCO | 80 to 83 °C |
| CCCCCc1ccc(-c2ccc(F)cc2)nc1 | 27 °C |
| CCOC(=O)C(=NOCCBr)c1csc(N)n1 | 111 to 114 °C |

Task: What value of measured melting point is listed for Cc1nc(N)nc(N)c1-c1cc(N)ccc1Cl ?
Result: 117 to 121 °C

Task: What value of measured melting point is listed for CC(C)Nc1c(NCc2ccccc2)cc(C(=O)O)cc1S(N)(=O)=O ?
Result: 233 to 234 °C

Task: I am curious: what melting point value has been reported for O=C(O)c1ccc2c(=O)c3cc(C(=O)O)ccc3oc2c1 ?
Result: > 400 °C

Task: Look at this compound and give its reported melting point. C#CCN(C(C)=O)c1cccc(-c2ccnc3c(C#N)cnn23)c1
Result: 193 to 195 °C

Task: # lookup: melting point of CCc1nn(C(C)CCCc2ccccc2)c2nc(Cc3ccc(-c4cccc(N)c4)cc3)[nH]c(=O)c12 (stereo not given)
Result: 108 °C

Task: Quick one: melting point for Cc1ccc(S(=O)(=O)N2[C@H](CCCc3nc(C)no3)CC[C@@H]2c2ccc(F)cc2)cc1 (racemic) ?
Result: 91 °C

Task: What measured melting point goes with CCOC(=O)c1ccc(/C=C(\C)c2cc3c(s2)C(C)(C)CCC3(C)C)nc1 ?
Result: 83 to 84 °C

Task: I am curious: what melting point value has been reported for COC(=O)c1cc2ccccc2c(-c2ccnc(Cl)c2)c1C(=O)OC ?
Result: 174 to 178 °C

Task: I am curious: what melting point value has been reported for CC(C)=CC(O)C(Cl)(Cl)Cl (stereo not given) ?
Result: 83 °C

Task: Please give the measured melting point for this compound: COc1c(Cl)ccc(-c2cc(N)c(Cl)c(C(=O)N3CC=CCO3)n2)c1F
Result: 78 to 81 °C

Task: For the compound shown here, CC(CCn1c(=O)[nH]c2cc(F)ccc21)N1CCN(c2ccc(F)cc2)CC1 (stereo not given) , give the reported melting point.
Result: 188 to 193 °C

Task: # input compound: COc1cc(Nc2c(C#N)cnc3cc(OCCCN4CCC(N5CCCCC5)CC4)c(OC)cc23)c(Cl)cc1Cl ; wanted: its melting point
Result: 130 to 132 °C

Task: Query (compound): COc1c(Cl)ccc(-c2cc(N)c(Cl)c(C(=O)NOCC(C)C)n2)c1F ; field requested: melting point
Result: 145 to 148 °C

Task: Would you mind telling me what melting point value was observed for C=CCSc1cn(C)cc(-c2cccc(C(F)(F)F)c2)c1=O ?
Result: 74 to 75 °C

Task: # query: melting point of entry CCOC(=O)c1cn(-c2nccs2)c2nc(N3C[C@@H](NC)[C@H](OC)C3)ccc2c1=O (relative stereo)
Result: 73 to 76 °C

Task: What measured melting point goes with Cn1nc(Br)c(I)c1-c1ccc(F)cc1Cl ?
Result: 139 to 141 °C
